Tested target: Proto-oncogene tyrosine-protein kinase Src (Homo sapiens)
Sequence (P12931 2-536 limits assumed): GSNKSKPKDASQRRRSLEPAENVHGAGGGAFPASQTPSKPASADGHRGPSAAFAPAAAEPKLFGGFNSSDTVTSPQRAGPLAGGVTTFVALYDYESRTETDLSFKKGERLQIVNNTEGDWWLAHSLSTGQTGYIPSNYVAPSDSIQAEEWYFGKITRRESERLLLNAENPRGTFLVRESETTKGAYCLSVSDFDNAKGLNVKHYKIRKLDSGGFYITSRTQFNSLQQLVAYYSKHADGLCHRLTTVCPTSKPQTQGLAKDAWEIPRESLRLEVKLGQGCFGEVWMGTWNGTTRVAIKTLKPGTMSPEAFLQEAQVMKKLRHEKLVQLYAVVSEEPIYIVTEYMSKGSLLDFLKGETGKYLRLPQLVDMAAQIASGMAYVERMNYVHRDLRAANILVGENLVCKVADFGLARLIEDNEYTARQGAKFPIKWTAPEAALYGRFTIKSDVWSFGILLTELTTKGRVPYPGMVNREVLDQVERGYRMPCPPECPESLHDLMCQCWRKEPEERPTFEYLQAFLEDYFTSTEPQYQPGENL
Run description: Inhibition of Src by HTRF assay
Measure: IC50

Enquiry: Reported IC50 for "Cc1ccc(NC(=O)c2cccc(C(F)(F)F)c2)cc1C(=O)Nc1cnc(Nc2ccc(N3CCN(C)CC3)cc2)nc1" : what is it?
Return: 3 nM

---

Run description: Volume of distribution at steady state in Sprague-Dawley rat at 0.5 mg/kg, iv
Type: ADME, organism-based
Parameters: dose 0.5 mg/kg, route intravenous
Condition summary: in vivo, read-out: Vdss
Measure: Vd

Enquiry: Reported Vd for "Cc1ccc(NC(=O)c2cccc(C(F)(F)F)c2)cc1C(=O)Nc1cnc(Nc2ccc(N3CCN(C)CC3)cc2)nc1" : what is it?
Return: 3.29 L/kg

Enquiry: # repeat for "COc1cc(OC)cc(C(=O)Nc2ccc(C)c(C(=O)Nc3cnc(Nc4ccc(N5CCN(C)CC5)cc4)nc3)c2)c1"
Return: 0.79 L/kg

Enquiry: # repeat for "Cc1ccc(NC(=O)c2cccc(C(F)(F)F)c2C)cc1C(=O)Nc1cnc(Nc2ccc(N3CCN(C)CC3)cc2)nc1"
Return: 5.45 L/kg

Enquiry: # repeat for "Cc1ccc(NC(=O)c2ccc3c(c2)OC(F)(F)O3)cc1C(=O)Nc1cnc(Nc2ccc(N3CCN(C)CC3)cc2)nc1"
Return: 3.76 L/kg

Enquiry: # repeat for "Cc1ccc(NC(=O)c2cc(F)cc(C(F)(F)F)c2)cc1C(=O)Nc1cnc(Nc2ccc(N3CCN(C)CC3)cc2)nc1"
Return: 1.61 L/kg

Enquiry: # repeat for "Cc1ccc(NC(=O)c2ccc(C(C)(C)C)cc2)cc1C(=O)Nc1cnc(Nc2ccc(N3CCN(C)CC3)cc2)nc1"
Return: 15.8 L/kg

# credit: ChEMBL document CHEMBL1144680
